Assay Details: Toxicokinetic, plasma concentration of compound I-6-II after empty liposome preparation
Type: in vivo, cynomolgus monkeys
Measurement Setup: male, cynomolgus monkey, plasma, im, 1200 ug, empty liposome high-dosage group (1200 μg compound I-6-II/animal), intramuscular, D 1, male, Mean
Readout Type: Cmax

{"Structure String": "CCCCCCCCCOC(=O)CCCCCCCN(CCCCCCCC(=O)OC(CCCCCCCC)CCCCCCCC)[C@@H]1CCC[C@H](O)C1", "Result": "198 ng/mL"}

====

Assay Details: Toxicokinetic, plasma concentration of compound I-6-II after empty liposome preparation
Type: in vivo, cynomolgus monkeys
Measurement Setup: female, cynomolgus monkey, plasma, im, 1200 ug, empty liposome high-dosage group (1200 μg compound I-6-II/animal), intramuscular, D 1, female, Mean; read-out: t1/2 (converted)
Readout Type: half-life (h)

{"Structure String": "CCCCCCCCCOC(=O)CCCCCCCN(CCCCCCCC(=O)OC(CCCCCCCC)CCCCCCCC)[C@@H]1CCC[C@H](O)C1", "Readout Type": "half-life", "Numeric Result": 5.07}

Values compiled from patent US20260015311A1.
